System: male Fischer 344 rats
Assay: Six-hour urine protein content after a single i.p. dose
Assay type: in vivo
Details: dose 0.6 (head mg/kg; text mmol/kg), i.p. in corn oil, mean ± SE, N = 3–4
Marks after values point to notes of the source that are not given here.
Items are presented alongside their recorded Six-hour urine protein content.
measure: Six-hour urine protein content

testSmiles | endpointValue
O=C1CSC(=O)N1c1ccc(Cl)cc1 | 2.0 ± 0.1^c mg
O=C(O)CSC(=O)Nc1cc(Cl)cc(Cl)c1 | 2.5 ± 1.1^b mg
O=C1CSCN1c1cc(Cl)cc(Cl)c1 | 1.9 ± 0.4^c mg

----------
Test system: male Fischer 344 rats
Experiment: Serum alanine aminotransferase
Type: in vivo
Conditions: 1.0 mmol/kg i.p. in corn oil, 24 h; corn oil controls 36.0 ± 11.3
measure: serum alanine aminotransferase (ALT) activity (Sigma-Frankel units/ml)

molecule | unitAbbreviation | endpointValue
O=C1CSC(=O)N1c1ccccc1 | Sigma-Frankel units/ml | 1196.2
CC1SC(=O)N(c2cc(Cl)cc(Cl)c2)C1=O (stereo not shown) | Sigma-Frankel units/ml | 327.3
Cc1cc(C)cc(N2C(=O)CSC2=O)c1 | Sigma-Frankel units/ml | 2071.9
O=C1CSC(=O)N1c1ccc(Cl)cc1 | Sigma-Frankel units/ml | 1622.5
